Kindly supply the reported Kd values for the records listed here.
Assayed system: T1, TFAM (UniProt Q00059 43-245)
T1 sequence: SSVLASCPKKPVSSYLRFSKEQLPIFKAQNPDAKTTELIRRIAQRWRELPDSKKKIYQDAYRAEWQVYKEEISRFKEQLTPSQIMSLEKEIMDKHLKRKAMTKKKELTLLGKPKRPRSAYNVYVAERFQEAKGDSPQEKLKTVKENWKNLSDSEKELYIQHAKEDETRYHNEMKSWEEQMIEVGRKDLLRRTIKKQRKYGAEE
Test description: fluorescence anisotropy; 10 mM Mg acetate; apparent Kd; 50 mM Tris acetate pH 7.5, 100 mM Na glutamate, 50 mM NaCl, 10 mM Mg acetate, 0.5 mM TCEP, 0.01% Tween 20, 0.1 mg/ml BSA, 25 °C; 5 nM DNA, 0-75 nM TFAM
Measurement setup: protein: recombinant; tags: N-terminal 6xHis, TEV-cleaved; label: fluorescein (FITC) at 3' end of template strand; blunt

Query: For the binder LSP (-41 to -12), fluorescein (dsDNA) DNA 1: TGTGTTAGTTGGGGGGTGACTGTTAAAAGT DNA 2: ACTTTTAACAGTCACCCCCCAACTAACACA , give its measured Kd value.
Result: ~9 nM

Query: Supply reported Kd belonging to this binder: HSP (-41 to -12), fluorescein (dsDNA) DNA 1: CACACCGCTGCTAACCCCATACCCCGAACC DNA 2: GGTTCGGGGTATGGGGTTAGCAGCGGTGTG
Result: ~43 nM

Query: Provide only the value of recorded Kd for NS (non-specific), fluorescein (dsDNA) DNA 1: TAGCAGGAGCAGGAACAGGATGAACAAGCA DNA 2: TGCTTGTTCATCCTGTTCCTGCTCCTGCTA
Result: ~44 nM
